Property: pKi; scope: individual compounds
- target-or-system: human RIP1 kinase domain (2-375) (Homo sapiens (Human))
- assay-info: biochemical
- Assay type: biochemical
- experimental-context: scale-up batches (Examples A-C); apparent Ki (Morrison tight-binding fit); 50 nM RIP1 kinase domain, 50 uM ATP; read-out: Ki
pKi: −log10 of the molar value.
readout-type: pKi

molecule	value-observed
CN1C(=O)[C@@H](NC(=O)c2ncn(Cc3ccccc3)n2)CCn2nc(C3CC3)cc21	7.80
Cc1cc2n(n1)CC[C@H](NC(=O)c1ncn(Cc3ccccc3)n1)C(=O)N2C	7.66
CN1C(=O)[C@@H](NC(=O)c2ncn(Cc3ccccc3)n2)CCn2nccc21	7.89

----------
- target-or-system: human RIP1 kinase domain (2-375) (Homo sapiens (Human), UniProt Q13546)
- Sequence (Q13546 2-375): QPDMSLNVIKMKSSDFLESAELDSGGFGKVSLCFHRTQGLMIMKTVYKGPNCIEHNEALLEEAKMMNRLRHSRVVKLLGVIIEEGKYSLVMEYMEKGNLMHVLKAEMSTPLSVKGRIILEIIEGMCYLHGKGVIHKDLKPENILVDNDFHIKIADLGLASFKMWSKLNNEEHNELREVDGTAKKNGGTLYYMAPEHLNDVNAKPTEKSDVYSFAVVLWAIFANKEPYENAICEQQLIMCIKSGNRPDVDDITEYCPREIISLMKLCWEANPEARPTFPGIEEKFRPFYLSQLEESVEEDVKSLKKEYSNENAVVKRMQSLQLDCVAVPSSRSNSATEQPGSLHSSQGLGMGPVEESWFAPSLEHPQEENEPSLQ
- assay-info: biochemical
- Format: biochemical
- experimental-context: read-out: RIP1 Ki

compound	Ki
CN1C(=O)[C@@H](NC(=O)c2n[nH]c3c2C[C@H](C(C)(C)C)CC3)COc2ccccc21	48 nM
C[C@H]1CCc2[nH]nc(C(=O)N[C@H]3COc4ccccc4N(C)C3=O)c2C1	103 nM
CN1C(=O)[C@@H](NC(=O)c2n[nH]c3c2CC(C(C)(C)C)CC3)COc2ccccc21 (some centres unmarked)	68.8 nM
CN1C(=O)[C@@H](NC(=O)c2n[nH]c3c2C[C@@H](C(C)(C)C)CC3)COc2ccccc21	121 nM
CC1CCc2n[nH]c(C(=O)N[C@H]3COc4ccccc4N(C)C3=O)c2C1 (some centres unmarked)	62.6 nM
C[C@@H]1CCc2[nH]nc(C(=O)N[C@H]3COc4ccccc4N(C)C3=O)c2C1	15.6 nM
CN1C(=O)[C@@H](NC(=O)c2nnc3ccc(C(F)(F)C(F)(F)F)nn23)COc2ccccc21	68.3 nM
CN1C(=O)[C@@H](NC(=O)c2n[nH]c3c2CC(C)(C)CC3)COc2ccccc21	415 nM

----------
- target-or-system: human RIP1 kinase domain (2-375) (Homo sapiens (Human))
- assay-info: biochemical
- Format: biochemical
- experimental-context: human RIP1 kinase domain (2-375), 50 uM ATP, 2 hours incubation, Transcreener ADP assay; read-out: RIP1 Ki
readout-type: Ki (nM)

molecule	readout-type	value-observed
CN1C(=O)[C@@H](NC(=O)c2n[nH]c3c2C[C@@H](C(F)(F)F)CC3)COc2c1cnn2C [Example 188]	Ki	4500
CN1C(=O)C(NC(=O)c2nnc(Cc3ccccc3)[nH]2)CCn2ccnc21 (stereo not shown) [Example 175]	Ki	212
CN1C(=O)[C@@H](NC(=O)c2ncn(CC3CCCC3)n2)CCn2nc(C3CC3)cc21 [Example 160]	Ki	24.5
CN1C(=O)[C@@H](NC(=O)c2cc3c(cn2)CO[C@@]3(C)CC(F)(F)F)COc2ccccc21 [Example 168]	Ki	269

----------
Ki listing for selected compounds.
- target-or-system: human RIP1 kinase domain (2-375) (Homo sapiens (Human))
- assay-info: biochemical
- Format: biochemical
- experimental-context: human RIP1 kinase domain (2-375), 50 uM ATP, 2 hours incubation, Transcreener ADP assay; read-out: RIP1 Ki

compound	target-or-system	scale-unit	Ki
CC(C)n1ncc2cnc(C(=O)N[C@H]3COc4ccccc4N(C)C3=O)nc21 [Example 122]	human RIP1 kinase domain (2-375) (Homo sapiens (Human))	nM	19.5
CN1C(=O)[C@@H](NC(=O)c2nnn3c2CC(c2ccccc2)C3)COc2ccccc21 (some centres unmarked) [Example 119]	human RIP1 kinase domain (2-375) (Homo sapiens (Human))	nM	201
CN1C(=O)[C@@H](NC(=O)c2nc3n(n2)C(c2ccccc2)CC3)CCn2nccc21 (some centres unmarked) [Example 124]	human RIP1 kinase domain (2-375) (Homo sapiens (Human))	nM	76.8
CC(c1ccccc1)c1nnc(C(=O)NC2CCCn3nccc3N(C)C2=O)[nH]1 (centres unmarked) [Example 95]	human RIP1 kinase domain (2-375) (Homo sapiens (Human))	nM	4300
CN1C(=O)C(NC(=O)c2n[nH]c(Cc3ccccc3)n2)CCn2nc(-c3ccccc3)cc21 (centres unmarked) [Example 209]	human RIP1 kinase domain (2-375) (Homo sapiens (Human))	nM	75.6
CN1C(=O)[C@@H](NC(=O)c2nc3n(n2)[C@H](c2ccccc2)CC3)CCn2nccc21 (single isomer, unassigned) [Example 126]	human RIP1 kinase domain (2-375) (Homo sapiens (Human))	nM	24.1
Cc1cnn2c1N(C)C(=O)C(NC(=O)c1ncn(Cc3ccccc3)n1)CC2 (centres unmarked) [Example 107]	human RIP1 kinase domain (2-375) (Homo sapiens (Human))	nM	69.7
CN1C(=O)[C@@H](NC(=O)c2cc3c(cn2)CO[C@]3(C)CC(F)(F)F)COc2ccccc21 [Example 161]	human RIP1 kinase domain (2-375) (Homo sapiens (Human))	nM	8.9

----------
- target-or-system: human RIP1 kinase domain (2-375) (Homo sapiens (Human))
- assay-info: biochemical
- Assay type: biochemical
- experimental-context: human RIP1 kinase domain (2-375), 50 uM ATP, 2 hours incubation, Transcreener ADP assay; read-out: RIP1 Ki
# Lookup of reported Ki keyed by entry

molecule	Ki [nM]
CN1C(=O)[C@@H](NC(=O)c2n[nH]c3c2CC(CC(F)(F)F)OC3)COc2ccccc21 (some centres unmarked)	193
CN1C(=O)[C@@H](NC(=O)c2n[nH]c3ccc(C4CC4)cc23)COc2ccccc21	12.9
CN1C(=O)[C@@H](NC(=O)c2cc3c(cn2)CO[C@]32CCOC2)COc2ccccc21	19.3
CN1C(=O)[C@@H](NC(=O)c2nnc3n2CC(C(F)(F)C(F)(F)F)CC3)COc2ccccc21 (some centres unmarked)	371
CN1C(=O)C(NC(=O)c2cn(Cc3ccccc3)nn2)CCn2nc3c(c21)CCCC3 (centres unmarked)	390
CN1C(=O)C(NC(=O)c2cn(Cc3ccccc3)nn2)CCn2ccnc21 (centres unmarked)	341
CN1C(=O)[C@@H](NC(=O)c2nnc(Cc3ccccc3)[nH]2)COc2c1cnn2C	93.6
CN1C(=O)C(NC(=O)c2nnc(Cc3ccccc3)[nH]2)CCn2nc3c(c21)CCCC3 (centres unmarked)	127

----------
- target-or-system: human RIP1 kinase domain (2-375) (Homo sapiens (Human))
- assay-info: biochemical
- Format: biochemical
- experimental-context: human RIP1 kinase domain (2-375), Transcreener ADP assay, 50 uM ATP, 2 hours incubation; read-out: RIP1 Ki
pKi: −log10 of the molar value.
readout-type: pKi

compound	target-or-system	readout-type	value-observed
CN1C(=O)[C@@H](NC(=O)c2cc(C3(O)CCC3)ccn2)COc2ccccc21	human RIP1 kinase domain (2-375) (Homo sapiens (Human))	pKi	5.86
CC[C@@]1(C)OCc2cnc(C(=O)N[C@H]3CCn4nc(C5CC5)cc4N(C)C3=O)cc21	human RIP1 kinase domain (2-375) (Homo sapiens (Human))	pKi	6.11
CN1C(=O)[C@@H](NC(=O)c2ncn(Cc3ccc(F)c(F)c3)n2)CCn2nc([C@@H]3CC3(F)F)cc21	human RIP1 kinase domain (2-375) (Homo sapiens (Human))	pKi	7.17
CC(c1ccc(F)cc1)n1cnc(C(=O)N[C@H]2CCn3nc(C4CC4)cc3N(C)C2=O)n1 (stereo in doubt)	human RIP1 kinase domain (2-375) (Homo sapiens (Human))	pKi	6.93
CN1C(=O)[C@@H](NC(=O)c2cc(C3(O)CCCC3)ccn2)COc2ccccc21	human RIP1 kinase domain (2-375) (Homo sapiens (Human))	pKi	6.00
CN1C(=O)[C@@H](NC(=O)c2ncn3cnc(C(F)(F)F)cc23)COc2ccccc21	human RIP1 kinase domain (2-375) (Homo sapiens (Human))	pKi	7.66
Cc1cc2n(n1)CC[C@H](NC(=O)c1nnc(Cc3ccccc3)[nH]1)C(=O)N2C	human RIP1 kinase domain (2-375) (Homo sapiens (Human))	pKi	7.07
CC[C@@]1(C)OCc2cnc(C(=O)N[C@H]3CCn4nc(C)cc4N(C)C3=O)cc21	human RIP1 kinase domain (2-375) (Homo sapiens (Human))	pKi	5.96
CN1C(=O)[C@@H](NC(=O)c2cc3c(cn2)COC3(C)CC(F)(F)F)COc2ccccc21 (stereo partly drawn)	human RIP1 kinase domain (2-375) (Homo sapiens (Human))	pKi	7.35
CC[C@@]1(C)OCc2cc(C(=O)NC3CCn4nc(-c5ccccc5)cc4N(C)C3=O)ncc21 (stereo partly drawn)	human RIP1 kinase domain (2-375) (Homo sapiens (Human))	pKi	6.63
Cc1cc2n(n1)CC[C@H](NC(=O)c1ncn(CC3CC3(F)F)n1)C(=O)N2C (stereo partly drawn)	human RIP1 kinase domain (2-375) (Homo sapiens (Human))	pKi	6.29
Cc1ccc(Cn2cnc(C(=O)NC3CCn4nc(C5CC5)cc4N(C)C3=O)n2)cn1 (stereo not drawn)	human RIP1 kinase domain (2-375) (Homo sapiens (Human))	pKi	6.29
CCCC1(C)OCc2cnc(C(=O)N[C@H]3COc4ccccc4N(C)C3=O)nc21 (stereo partly drawn)	human RIP1 kinase domain (2-375) (Homo sapiens (Human))	pKi	7.28
CN1C(=O)[C@@H](NC(=O)c2ncn(CC3(C)CC3)n2)CCn2nc(C3CC3)cc21	human RIP1 kinase domain (2-375) (Homo sapiens (Human))	pKi	6.77
Cc1nn2c(c1C)N(C)C(=O)[C@@H](NC(=O)c1ncn(Cc3cccc(F)c3F)n1)CC2	human RIP1 kinase domain (2-375) (Homo sapiens (Human))	pKi	7.34
CN1C(=O)C(NC(=O)c2n[nH]c(Cc3ccccc3)n2)CCn2nc(C3CCOCC3)cc21 (stereo not drawn)	human RIP1 kinase domain (2-375) (Homo sapiens (Human))	pKi	6.65
CN1C(=O)[C@@H](NC(=O)c2nnc(Cc3ccccc3)o2)CCn2nc(C3CC3)cc21	human RIP1 kinase domain (2-375) (Homo sapiens (Human))	pKi	7.23
CN1C(=O)C(NC(=O)c2ncn(CC3CC3)n2)CCn2nc(C3CC3)cc21 (stereo not drawn)	human RIP1 kinase domain (2-375) (Homo sapiens (Human))	pKi	5.72
CC[C@@]1(C)OCc2cnc(C(=O)NC3CCn4cncc4N(C)C3=O)cc21 (stereo partly drawn)	human RIP1 kinase domain (2-375) (Homo sapiens (Human))	pKi	6.25
CN1C(=O)[C@@H](NC(=O)c2ncn(Cc3ccccc3)n2)CCn2nc(C3CC3(F)F)cc21 (stereo partly drawn)	human RIP1 kinase domain (2-375) (Homo sapiens (Human))	pKi	7.14
CN1C(=O)[C@H](NC(=O)c2ncn(Cc3ccc(F)cc3F)n2)CCn2nc([C@H]3CC3(F)F)cc21	human RIP1 kinase domain (2-375) (Homo sapiens (Human))	pKi	7.50
CC[C@@]1(C)OCc2cnc(C(=O)NC3CCn4ccnc4N(C)C3=O)cc21 (stereo partly drawn)	human RIP1 kinase domain (2-375) (Homo sapiens (Human))	pKi	5.70
CC(C)c1cnc2[nH]nc(C(=O)N[C@H]3COc4ccccc4N(C)C3=O)c2c1	human RIP1 kinase domain (2-375) (Homo sapiens (Human))	pKi	7.26
CN1C(=O)[C@H](NC(=O)c2ncn(Cc3ccccc3)n2)CCn2nc(C3CC3(F)F)cc21 (stereo partly drawn)	human RIP1 kinase domain (2-375) (Homo sapiens (Human))	pKi	7.06
